The measurements presented in this section are drawn from ChEMBL document CHEMBL1147714.

Overview of recorded Cmax for various molecules
assay: Cmax in mouse at 10 mg/kg, po; type: ADME, organism-based; set-up: dose 10 mg/kg, route oral; conditions: in vivo

Cc1cc(OCc2cc(-c3ccc(OC(F)(F)F)cc3)nc(-c3ccc(OC(F)(F)F)cc3)n2)ccc1OCC(=O)O > 4 µM

Here is the next item to consider.
Name the recorded Cmax for Cc1cc(OCc2cc(-c3ccc(C(F)(F)F)cc3)cc(-c3ccc(C(F)(F)F)cc3)c2)ccc1OCC(=O)O .
> 4 µM

====

assay: Bioavailability in mouse at 10 mg/kg, po; type: ADME, organism-based; settings: in vivo
This listing pairs molecules with measured bioavailability.

Cc1cc(OCc2cc(-c3ccc(OC(F)(F)F)cc3)nc(-c3ccc(OC(F)(F)F)cc3)n2)ccc1OCC(=O)O > 50%

The record that follows has no bioavailability shown yet.
Field request: bioavailability | item: Cc1cc(OCc2cc(-c3ccc(C(F)(F)F)cc3)cc(-c3ccc(C(F)(F)F)cc3)c2)ccc1OCC(=O)O
> 50%

====

compounds and their reported EC50
target: Peroxisome proliferator-activated receptor delta (Homo sapiens); test: Effect on human PPARdelta transactivation in 293T cells
Write the number in nM without appending the unit.

// solved cases for EC50 follow
O=C(O)COc1ccc(OCc2cc(-c3ccc(C(F)(F)F)cc3)cc(-c3ccc(C(F)(F)F)cc3)c2)cc1 110
COc1ccc(-c2cc(COc3ccc(OCC(=O)O)c(C)c3)cc(-c3ccc(C(F)(F)F)cc3)c2)cc1 70
Cc1cc(OCc2cc(-c3ccccc3)cc(-c3ccccc3)c2)ccc1OCC(=O)O 560

Endpoint output: EC50 of O=C(O)Cc1ccc(SCc2cc(-c3ccc(C(F)(F)F)cc3)cc(-c3ccc(C(F)(F)F)cc3)c2)c(Cl)c1 . Value?
160

====

assay: Half life in mouse at 10 mg/kg, po; format: ADME, organism-based; set-up: dose 10 mg/kg, route oral; settings: in vivo
observed_property: half-life
Write the quantity with the unit trailing the number.

Cc1cc(OCc2cc(-c3ccc(C(F)(F)F)cc3)cc(-c3ccc(C(F)(F)F)cc3)c2)ccc1OCC(=O)O 3 h

Next molecule, half-life to be filled in.
Item Cc1cc(OCc2cc(-c3ccc(OC(F)(F)F)cc3)nc(-c3ccc(OC(F)(F)F)cc3)n2)ccc1OCC(=O)O has what recorded half-life?
3 h

====

# reported pEC50; entries follow
molecular target: Peroxisome proliferator-activated receptor delta (Homo sapiens); assay: Effect on human PPARdelta transactivation in 293T cells
Would you please state pEC50, meaning minus log10 of the concentration in mol/L, as a bare number?

Below: 2 compounds and their reported pEC50.
Cc1cc(OCc2cc(-c3ccc(Cl)cc3)cc(-c3ccc(Cl)cc3)c2)ccc1OCC(=O)O 6.96
Cc1cc(OCc2cc(-c3ccc(OC(F)(F)F)cc3)cc(-c3ccc(C(F)(F)F)cc3)c2)ccc1OCC(=O)O 7.22

// lookup pEC50 for Cc1cc(OCc2cc(-c3ccc(C(F)(F)F)cc3)cc(-c3cccc(C(F)(F)F)c3)c2)ccc1OCC(=O)O
6.25

Request: COc1ccc(-c2cc(COc3ccc(OCC(=O)O)c(C)c3)cc(-c3ccc(OC)cc3)c2)cc1
6.46

====

molecular target: Peroxisome proliferator-activated receptor delta (Homo sapiens); experiment: Effect on human PPARdelta transactivation in 293T cells
Threshold 60 nM: EC50 strictly smaller gives yes (1), otherwise no (0).

Answered examples (4):
Cc1cc(OCc2cc(-c3ccc(C(F)(F)F)cc3)cc(-c3ccc(C(F)(F)F)cc3)c2)ccc1OCC(=O)O yes (1)
Cc1cc(OCc2nc(-c3ccc(C(F)(F)F)cc3)cc(-c3ccc(C(F)(F)F)cc3)n2)ccc1OCC(=O)O yes (1)
Cc1cc(OCc2nc(-c3ccc(OC(F)(F)F)cc3)cc(-c3ccc(OC(F)(F)F)cc3)n2)ccc1OCC(=O)O no (0)
Cc1cc(OCC(=O)O)ccc1OCc1cc(-c2ccc(C(F)(F)F)cc2)cc(-c2ccc(C(F)(F)F)cc2)c1 no (0)

Now look at this entry.
In the record for COc1ccc(-c2ccc(COc3ccc(OCC(=O)O)c(C)c3)cc2-c2ccc(OC)cc2)cc1 , is EC50 less than 60 nM?
no (0)

====

Target: Peroxisome proliferator-activated receptor delta (Homo sapiens)
Sequence (Q03181 whole entry): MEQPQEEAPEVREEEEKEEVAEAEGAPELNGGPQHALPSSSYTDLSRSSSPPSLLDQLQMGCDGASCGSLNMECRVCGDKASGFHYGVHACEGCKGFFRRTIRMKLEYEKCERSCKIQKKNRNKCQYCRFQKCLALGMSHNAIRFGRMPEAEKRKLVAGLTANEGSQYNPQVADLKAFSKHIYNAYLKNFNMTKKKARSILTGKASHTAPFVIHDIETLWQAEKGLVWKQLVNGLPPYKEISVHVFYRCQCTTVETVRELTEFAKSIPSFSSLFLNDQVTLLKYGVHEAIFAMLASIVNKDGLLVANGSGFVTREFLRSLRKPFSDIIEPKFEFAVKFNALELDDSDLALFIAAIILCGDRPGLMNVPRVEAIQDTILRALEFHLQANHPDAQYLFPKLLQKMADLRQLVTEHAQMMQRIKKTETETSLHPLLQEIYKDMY
Test: Effect on human PPARdelta transactivation in 293T cells
observed_property: log10(EC50) (log10 of the value in nM)
A value of 2 here means EC50 of 100 in nM, since values are log10.

O=C(O)Cc1ccc(OCc2cc(-c3ccc(C(F)(F)F)cc3)cc(-c3ccc(C(F)(F)F)cc3)c2)c(Cl)c1 2.73
Cc1cc(OCc2cc(-c3ccc(N(C)C)cc3)cc(-c3ccc(N(C)C)cc3)c2)ccc1OCC(=O)O 2.69
Cc1cc(OCc2cc(-c3ccc(OC(F)(F)F)cc3)nc(-c3ccc(OC(F)(F)F)cc3)n2)ccc1OCC(=O)O 1.60
Cc1ccc(-c2cc(COc3ccc(OCC(=O)O)c(C)c3)cc(-c3ccc(C(F)(F)F)cc3)c2)cc1 1.85
O=C(O)COc1ccc(OCc2cc(-c3ccccc3)cc(-c3ccccc3)c2)cc1 2.99
COc1ccc(-c2cc(COc3ccc(OCC(=O)O)c(C)c3)nc(-c3ccc(OC)cc3)n2)cc1 2.32
COc1ccc(-c2cc(-c3ccc(OC)cc3)nc(COc3ccc(OCC(=O)O)c(C)c3)n2)cc1 2.04
Cc1cc(OCc2cc(-c3ccc(C(F)(F)F)cc3)nc(-c3ccc(C(F)(F)F)cc3)n2)ccc1OCC(=O)O 1.48

Which log10(EC50) is reported with Peroxisome proliferator-activated receptor delta (Homo sapiens) for this entry: Cc1cc(OCc2cc(-c3ccc(OC(F)(F)F)cc3)cc(-c3ccc(OC(F)(F)F)cc3)c2)ccc1OCC(=O)O ?
1.48

And then CC(C)(Oc1ccc(OCc2cc(-c3ccc(C(F)(F)F)cc3)cc(-c3ccc(C(F)(F)F)cc3)c2)cc1)C(=O)O , what is it?
1.70

And the next one, Cc1cc(SCc2cc(-c3ccc(C(F)(F)F)cc3)cc(-c3ccc(C(F)(F)F)cc3)c2)ccc1OCC(=O)O ?
1.48
